# target_under_test: huLTBP1 proTGFβ1 (Homo sapiens, UniProt P01137+Q14766)
# Sequence (P01137 30-390): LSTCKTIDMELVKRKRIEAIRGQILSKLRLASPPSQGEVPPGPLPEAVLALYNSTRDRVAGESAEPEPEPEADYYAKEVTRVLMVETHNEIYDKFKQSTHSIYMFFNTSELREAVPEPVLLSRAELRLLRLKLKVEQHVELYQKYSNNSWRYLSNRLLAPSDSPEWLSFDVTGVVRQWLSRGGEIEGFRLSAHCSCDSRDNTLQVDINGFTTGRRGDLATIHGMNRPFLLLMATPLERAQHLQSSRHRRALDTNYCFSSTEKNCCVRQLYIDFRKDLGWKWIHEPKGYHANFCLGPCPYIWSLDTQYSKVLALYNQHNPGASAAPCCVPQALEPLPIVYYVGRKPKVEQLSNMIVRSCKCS
# Sequence (Q14766 347-1721 limits assumed): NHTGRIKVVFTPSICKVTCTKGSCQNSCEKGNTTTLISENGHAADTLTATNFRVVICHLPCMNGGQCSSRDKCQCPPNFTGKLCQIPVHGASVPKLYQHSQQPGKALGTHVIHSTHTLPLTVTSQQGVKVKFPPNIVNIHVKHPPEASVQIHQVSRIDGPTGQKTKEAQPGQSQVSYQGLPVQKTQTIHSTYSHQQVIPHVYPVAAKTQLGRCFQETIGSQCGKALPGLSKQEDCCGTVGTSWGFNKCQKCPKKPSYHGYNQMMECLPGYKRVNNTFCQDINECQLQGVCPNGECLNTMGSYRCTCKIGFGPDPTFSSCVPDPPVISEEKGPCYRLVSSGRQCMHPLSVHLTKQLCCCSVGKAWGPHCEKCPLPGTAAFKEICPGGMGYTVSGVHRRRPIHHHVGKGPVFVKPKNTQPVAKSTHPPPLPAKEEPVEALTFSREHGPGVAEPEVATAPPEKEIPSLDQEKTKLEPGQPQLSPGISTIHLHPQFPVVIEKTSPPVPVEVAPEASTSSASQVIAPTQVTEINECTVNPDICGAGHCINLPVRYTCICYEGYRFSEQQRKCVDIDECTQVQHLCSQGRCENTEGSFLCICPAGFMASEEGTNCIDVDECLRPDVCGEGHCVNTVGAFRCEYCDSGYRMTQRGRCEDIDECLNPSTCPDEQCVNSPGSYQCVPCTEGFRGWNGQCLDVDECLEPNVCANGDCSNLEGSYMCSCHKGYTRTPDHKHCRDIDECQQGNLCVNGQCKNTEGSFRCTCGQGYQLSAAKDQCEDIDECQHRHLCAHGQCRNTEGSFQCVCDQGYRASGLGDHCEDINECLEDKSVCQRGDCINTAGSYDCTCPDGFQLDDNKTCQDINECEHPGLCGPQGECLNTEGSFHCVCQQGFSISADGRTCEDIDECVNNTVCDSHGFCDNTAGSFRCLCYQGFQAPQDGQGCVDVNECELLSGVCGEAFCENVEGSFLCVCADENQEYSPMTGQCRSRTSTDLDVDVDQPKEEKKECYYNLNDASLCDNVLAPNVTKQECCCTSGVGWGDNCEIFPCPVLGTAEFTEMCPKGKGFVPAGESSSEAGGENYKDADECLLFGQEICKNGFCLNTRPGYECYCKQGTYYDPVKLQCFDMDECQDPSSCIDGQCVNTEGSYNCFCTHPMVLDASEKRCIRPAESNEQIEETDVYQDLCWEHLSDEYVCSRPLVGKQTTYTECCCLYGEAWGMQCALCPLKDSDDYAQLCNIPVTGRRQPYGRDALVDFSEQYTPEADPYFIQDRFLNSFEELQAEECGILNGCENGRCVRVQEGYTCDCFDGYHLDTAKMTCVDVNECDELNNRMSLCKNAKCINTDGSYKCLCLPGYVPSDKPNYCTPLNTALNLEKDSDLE
# test_name: SPR (Biacore 8K) monovalent binding kinetics of Fabs, biotinylated antigen captured
# Set-up: biotin (complex biotinylated)
# experimental_conditions: Fab, huLTBP1 proTGFβ1; SR-AB42-HuFab average of five, SR-AB63-HuFab average of four replicate experiments
quantity: kd (s⁻¹)
// note: answer is a bare numeric in s⁻¹

{"molecule": "SR-AB50-HuFab (antibody, V domains shown) VH: QVQLVESGGGVVQPGRSLRLSCAASGFTFRSYVMHWVRQAPGKGLEWVAVISHEGSGKYYADSVKGRFTISRDNSKNTLYLQMNSLRAEDTAVYYCARPRIAARRGGFGTWGQGTLVTVSS VL: NFMLTQPHSVSESPGKTVTISCTRSSGNIDYNYVQWYQQRPGSSPTTVIYEDNVRPSGVPDRFSGSIDSSSNSASLTISGLKTEDEADYYCQSYDSDNQRVVFGGGTKLTVL", "quantity_unit": "s⁻¹", "kd": 0.000182}

[ask] Provide only the value of recorded kd for SR-AB52-HuFab (antibody, V domains shown) VH: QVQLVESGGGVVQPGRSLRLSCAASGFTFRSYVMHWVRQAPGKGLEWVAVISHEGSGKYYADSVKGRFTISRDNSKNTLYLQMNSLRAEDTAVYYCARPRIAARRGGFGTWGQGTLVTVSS VL: NFMLTQPHSVSESPGKTVTISCTRSSGNIDYNYVQWYQQRPGSSPTTVIYEDNVRPSGVPDRFSGSIDSSSNSASLTISGLKTEDEADYYCQSYDYDTQGVVFGGGTKLTVL
[reply] 9.91e-05

[ask] Provide only the value of recorded kd for SR-AB51-HuFab (antibody, V domains shown) VH: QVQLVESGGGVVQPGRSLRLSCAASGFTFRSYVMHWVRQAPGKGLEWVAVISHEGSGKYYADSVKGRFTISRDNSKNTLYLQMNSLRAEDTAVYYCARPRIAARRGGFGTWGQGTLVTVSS VL: NFMLTQPHSVSESPGKTVTISCTRSSGNIDYNYVQWYQQRPGSSPTTVIYEDNVRPSGVPDRFSGSIDSSSNSASLTISGLKTEDEADYYCQSYDYDNQAVVFGGGTKLTVL
[reply] 0.00015

Provenance of the data: patent US11214614B2
